Assignment: determine reported Plant response rating, Ragweed for the given compounds.
tested on: ragweed; assay: Test A preemergence; type: in vivo, Ambrosia artemisiifolia; settings: 1000 g ai/ha, 0 to 100 scale (0 no effect, 100 complete control), 10 days
Lab note: jot down the number only; don't add units.

// field: Plant response rating, Ragweed; key: CC1CN(C(=O)c2ccnc(-n3cncn3)c2)c2cccc(Cl)c2O1 (stereo not drawn) ; value = 80

Notebook: CC1CN(C(=O)c2cccc(-n3cncn3)c2)c2cc(F)ccc2O1 (stereo not drawn) , Plant response rating, Ragweed read as 0

According to the records, this compound CC1CN(C(=O)c2cccc(-n3cncn3)c2)c2cccc(Br)c2O1 (stereo not drawn) displays Plant response rating, Ragweed of 0

Given item CC1CN(C(=O)c2cccc(-n3cncn3)c2)c2ccccc2O1 (stereo not drawn) , the value recorded as its Plant response rating, Ragweed is 20

Record summary for O=C(c1ccnc(-n2cncn2)c1)N1CC(CF)Oc2c(Cl)cccc21 (stereo not drawn) : reported Plant response rating, Ragweed = 30

The compound listed as CCC1CN(C(=O)c2ccnc(-n3cncn3)c2)c2cccc(Br)c2O1 (stereo not drawn) has a reported Plant response rating, Ragweed of 0

So for Cc1cc(C(=O)N2CC(C)Oc3c(Cl)cccc32)cc(-n2cncn2)c1 (stereo not drawn) , the logged Plant response rating, Ragweed turned out to be 0

Documented Plant response rating, Ragweed of "Cc1nc(-c2cccc(C(=O)N3C[C@H](C)Oc4c(Cl)cccc43)c2)no1" : 0

// CCC1CN(C(=O)c2ccnc(-n3cncn3)c2)c2c(Cl)cccc2O1 (stereo not drawn) : Plant response rating, Ragweed value = 0

====

Assign pest or weed control at 500 g/ha to each entry below.
test system: foxtail, giant; assay: Test A postemergence; type: in vivo, Setaria faberi; settings: Setaria faberi, post-emergence, 240 h, 500 g ai/ha, postemergence, 10 days, visual injury, 0 to 100 scale (0 no effect, 100 complete control); read-out: Plant response rating, Foxtail, Giant

Lab note: measured pest or weed control at 500 g/ha of "C[C@H]1CN(C(=S)c2cccc(-n3cncn3)c2)c2cccc(Cl)c2O1" was 100%

Entry "Cc1ccc(-n2cnc(C(C)C)n2)cc1C(=O)N1C[C@H](C)Oc2c(Cl)cccc21" — recorded pest or weed control at 500 g/ha = 90%

Form field pest or weed control at 500 g/ha, entry Cc1ccc(-n2ncnc2C)cc1C(=O)N1C[C@H](C)Oc2c(Cl)cccc21 (single isomer, unassigned) : 70%

Record summary for "CCc1ccc(-n2cnc(C(C)C)n2)cc1C(=O)N1C[C@H](C)Oc2c(Cl)cccc21" : reported pest or weed control at 500 g/ha = 90%

response.value for Cc1ncn(-c2ccc(C)c(C(=O)N3C[C@H](C)Oc4c(Cl)cccc43)c2)n1 (single isomer, unassigned) (field: pest or weed control at 500 g/ha) = 90%

====

system: ragweed; assay: Test C postemergence; assay type: in vivo, Ambrosia artemisiifolia; details: 500 g ai/ha, postemergence, 10 days, 0 to 100 scale (0 no effect, 100 complete control)
Would you mind telling me the reported Plant response rating, Ragweed of each entry?
Lab note: record just the number, no unit beside it.

Summary: CC(C)c1ncn(-c2cc(C(=O)N3C[C@H](C)Oc4c(Cl)cccc43)cnn2)n1 [Compound 305] , ragweed, Plant response rating, Ragweed = 80

Plant response rating, Ragweed value, target or system ragweed, for CCc1ncn(-c2ccc(C)c(C(=O)N3CC(C(F)(F)F)Oc4c(Cl)cccc43)c2)n1 (racemic) [Compound 290] : 80

// Plant response rating, Ragweed (ragweed) for Cc1cccc2c1O[C@@H](C)CN2C(=O)c1cccc(-n2cnc([N+](=O)[O-])n2)c1 [Compound 306] = 0

Test item CCOCC1CN(C(=O)c2cc(-n3cnc(C(C)(C)C)n3)ccc2OC)c2cccc(Cl)c2O1 (stereo not drawn) [Compound 379] ; ragweed; reported Plant response rating, Ragweed was 90

Measured Plant response rating, Ragweed for this entry Cc1cccc2c1O[C@@H](C)CN2C(=O)c1cccc(-n2cnc(C#C[Si](C)(C)C)n2)c1 [Compound 284] on ragweed: 0

// compound COC[C@H]1CN(C(=O)c2cc(-n3cnc(C(C)C)n3)ccc2C)c2cccc(Cl)c2O1 [Compound 313] , assay ragweed, Plant response rating, Ragweed value: 90

Plant response rating, Ragweed on ragweed for Cc1ncn(-c2ccc(F)c(C(=O)N3C[C@H](C)Oc4c(C)cccc43)c2)n1 [Compound 361] is 60

Fill in: ragweed Plant response rating, Ragweed for CC(C)c1ncn(-c2ccc([S+](C)[O-])c(C(=O)N3C[C@H](C)Oc4c(Cl)cccc43)c2)n1 (stereo partly drawn) [Compound 394] = 70

Let me check: C[C@H]1CN(C(=O)c2cc(-n3cncn3)cc(C(F)(F)F)c2)c2cccc(Cl)c2O1 [Compound 335] , system ragweed, measured Plant response rating, Ragweed is 20

Assay ragweed, sample Cc1cccc2c1OC(C(F)(F)F)CN2C(=O)c1ccnc(-n2cnc(C(C)C)n2)c1 (single isomer, unassigned) [Compound 320] , Plant response rating, Ragweed read: 50

Measured Plant response rating, Ragweed (ragweed), entry Cc1ccc(-n2cncn2)cc1C(=O)N1CC(C(F)(F)F)Oc2c(Cl)cccc21 (stereo not drawn) [Compound 346] : 40

Per the reported ragweed data, COC(=O)c1ncn(-c2ccc(C)c(C(=O)N3C[C@H](C)Oc4c(Cl)cccc43)c2)n1 [Compound 315] has Plant response rating, Ragweed of 70

Kindly note: ragweed, Cc1ccc(-n2cnc(C(C)C)n2)cc1C(=O)N1CC(C(F)(F)F)Oc2c(Cl)cccc21 (single isomer, unassigned) [Compound 292] , Plant response rating, Ragweed value reported: 20

Record for Cc1cccc2c1OC(C(F)(F)F)CN2C(=O)c1cccc(-n2cnc(C(C)C)n2)c1 (racemic) [Compound 301] under target or system ragweed: Plant response rating, Ragweed reported as 60

# Plant response rating, Ragweed measured on ragweed for item Cc1ncn(-c2ccc(C)c(C(=O)N3CC(C(F)(F)F)Oc4c(Cl)cccc43)c2)n1 (stereo not drawn) [Compound 349] = 40
